# target: T1, human IL-36R (on cells) (human, UniProt Q9HB29 20-575)
# T1 sequence (looked up): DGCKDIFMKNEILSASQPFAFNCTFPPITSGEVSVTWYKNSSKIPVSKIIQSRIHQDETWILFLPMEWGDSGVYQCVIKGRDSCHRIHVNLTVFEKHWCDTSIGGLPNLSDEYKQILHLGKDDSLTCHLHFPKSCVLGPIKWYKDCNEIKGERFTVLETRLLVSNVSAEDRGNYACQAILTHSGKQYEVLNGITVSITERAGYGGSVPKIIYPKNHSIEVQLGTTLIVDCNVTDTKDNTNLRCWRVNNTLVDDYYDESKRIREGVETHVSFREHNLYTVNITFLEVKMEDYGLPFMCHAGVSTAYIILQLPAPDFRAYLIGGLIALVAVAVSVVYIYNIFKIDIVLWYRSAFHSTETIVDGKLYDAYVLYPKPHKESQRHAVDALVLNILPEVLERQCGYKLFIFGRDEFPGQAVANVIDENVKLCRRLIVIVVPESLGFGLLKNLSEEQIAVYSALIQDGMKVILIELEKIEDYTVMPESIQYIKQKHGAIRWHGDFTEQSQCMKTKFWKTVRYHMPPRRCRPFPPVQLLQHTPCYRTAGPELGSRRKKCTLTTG
# protocol text: cell-based or functional assay
Collected EC50 (nM), HEK human IL-36R IL-8 luciferase reporter assay, 200 ng/ml hIL-36γ values appear next to each entry.
measurement type: EC50 (nM), HEK human IL-36R IL-8 luciferase reporter assay, 200 ng/ml hIL-36γ

INSERT INTO results (binder, measured) VALUES
  ('Hzd 5D3 (APE6155) (antibody, V domains shown, also called APE6917; APE06155) VH: QVQLVQSGAEVKKPGASVKVSCKASGYTFTNYWMNWVRQAPRQGLEWMGMFHPTGDVTRLNQKFKDRVTMTRDTSTSTVYMELSSLRSEDTAVYYCARTTSMIIGGFAYWGQGTLVTVSS VL: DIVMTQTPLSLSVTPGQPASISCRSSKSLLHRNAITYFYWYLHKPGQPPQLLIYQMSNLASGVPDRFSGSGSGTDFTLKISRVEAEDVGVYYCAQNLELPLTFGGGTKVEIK', 0.4),
  ('Hzd 18D4 (APE5713) (antibody, V domains shown) VH: QVQFQESGPGLVKPSQTLSLTCTVSGYSITSDFAWNWIRQPPGKGLEWIGYISYSGDTNYNPSLKSRVTISRDTSKNQFSLKLSSVTAADTAVYFCAIRGPYSFTYWGQGTLVTVSS VL: DIQMTQSPSSLSASVGDRVTITCRASQDINNYLNWYQQKPGKAPKLLIYYTSRLHSGVPSRFSPSGSGTDYTFTISSLQPEDIATYYCQQGHTLPWTFGGGTKVEIK', 11),
  ('Hzd 18D4 (APE7247) (antibody, V domains shown, also called APE6903; APE07247) VH: DVQFQESGPGLVKPSQTLSLTCTVTGYSITADFAWNWIRQPPGKGLEWIGYISYSGDTNYNPSLKSRVTITRDTSKNQFSLKLSSVTAADTAVYFCAIRGPYSFTYWGQGTLVTVSS VL: DIQMTQSPSSLSASVGDRVTITCRASQWINNYLNWYQQKPGKAPKLLIYYTSMLHSGVPSRFSPSGSGNDYTFTISSLQPEDIATYYCQQGHTLPWTFGGGTKVEIKR', 0.104);

The values you see were collected from patent US20200087408A1.
